Reported cell viability values are given for each entry in this list.
- Test system: Caco-2
- experiment_notes: cell viability relative to DMSO; higher = less toxic
- condition_description: 72 h; 10 nM
Give the quantity in %, number only.

Observe how each entry below is paired with its result.
In [3]: df
Out[3]:
                              compound  reading
0        O=C(N/N=C/c1ccccc1O)c1ccccc1O     97.6
1  N#Cc1cc2nc(O)c(O)nc2cc1[N+](=O)[O-]     96.1

Consider now this further compound.
Query for Caco-2: what cell viability does the record show for CCCCCCCC/C=C/C(=O)O [trans-2-undecenoic-acid] ?
105
